Quick note: these are IC50 numbers for system: UniProt:Q86X55
Sequence (Q86X55 2-585 isoform Q86X55-1): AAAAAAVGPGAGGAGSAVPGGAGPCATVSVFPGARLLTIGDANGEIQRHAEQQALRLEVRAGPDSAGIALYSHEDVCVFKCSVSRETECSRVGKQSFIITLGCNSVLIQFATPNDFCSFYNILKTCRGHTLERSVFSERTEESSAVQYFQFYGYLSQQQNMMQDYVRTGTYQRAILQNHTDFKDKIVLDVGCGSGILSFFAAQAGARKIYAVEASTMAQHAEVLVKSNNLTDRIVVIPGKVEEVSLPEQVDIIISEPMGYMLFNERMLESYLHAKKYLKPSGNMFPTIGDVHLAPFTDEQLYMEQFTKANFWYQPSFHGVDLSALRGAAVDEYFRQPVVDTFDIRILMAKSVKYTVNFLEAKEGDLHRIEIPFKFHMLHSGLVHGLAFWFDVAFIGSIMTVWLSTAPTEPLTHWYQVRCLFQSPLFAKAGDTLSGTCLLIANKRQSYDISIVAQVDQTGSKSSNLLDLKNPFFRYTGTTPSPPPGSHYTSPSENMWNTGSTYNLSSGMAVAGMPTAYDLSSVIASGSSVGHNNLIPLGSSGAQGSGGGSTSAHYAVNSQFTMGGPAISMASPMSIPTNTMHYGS
Form field: result (number plus unit)

Use these answered entries as a reference point.
compound	IC50
CNCCN(C)Cc1cccc(-c2cc(C(=O)NCCCC(=O)NCC3CCOCC3)c3cnn(C(C)C)c3n2)c1 [Compound 60]	17.2 nM
CNCCN(C)Cc1cccc(-c2cc(C(=O)N[C@@H](C)c3ccccc3)c3cn[nH]c3n2)c1 [Compound 12]	79.3 nM
CNCCN(C)Cc1cccc(-c2cc(C(=O)NCC3CCOCC3)c3cnn(C)c3n2)c1 [Compound 289]	163 nM
CNCCN(C)Cc1cccc(-c2cc(N)c3cnn(C(C)C)c3n2)c1 [Compound 151]	92.1 nM
CNCCN(C)Cc1cccc(-c2cc(C(=O)N(C)Cc3ccccc3F)c3cnn(C(C)C)c3n2)c1 [Compound 304]	239 nM
CNCCN(C)Cc1cccc(-c2nc(NCc3nccs3)c3cnn(C4CC4)c3n2)c1 [Compound 2]	16.8 nM
CNCCN(C)Cc1ccc(-c2cc(C(=O)NCc3c(C)cc(C)[nH]c3=O)c(C)c3n[nH]cc23)cc1 [Compound 362]	1980 nM
CNCCN(C)Cc1cccc(-c2cc(C(=O)N(C)Cc3ccc(F)cc3)c3cnn(C(C)C)c3n2)c1 [Compound 278]	110 nM
CNCCN(C)Cc1cccc(-c2cc(N3CCC(OC)CC3)c3cnn(C(C)C)c3n2)c1 [Compound 51]	16.7 nM
CNCCN(C)Cc1cccc(-c2cc(C(=O)N3CCN(C)C(=O)C3)c3cnn(C(C)C)c3n2)c1 [Compound 296]	183 nM

INPUT: Lab note: need IC50 for CNCCN(C)Cc1cccc(-c2cc(OCC(F)(F)F)c3cnn(C(C)C)c3n2)c1 [Compound 154] on UniProt:Q86X55, anyone have it?
OUTPUT: 46.9 nM

INPUT: # get_value(readout= IC50, system= UniProt:Q86X55) for CCS(=O)(=O)Nc1cc(-c2cccc(CN(C)CCNC)c2)nc2c1cnn2C(C)C [Compound 161]
OUTPUT: 169 nM

INPUT: What IC50 appears in the records for this compound with UniProt:Q86X55? CNCCN(C)Cc1cccc(-c2cc(C(=O)NCCCCCC(=O)NCc3ccn(C)n3)c3cnn(C(C)C)c3n2)c1 [Compound 117]
OUTPUT: 33.4 nM

INPUT: Query IC50 on UniProt:Q86X55 for CNCCN(C)Cc1cccc(-c2cc(C(=O)NCc3c(C)cc(C)[nH]c3=O)c3cnn(C(C)C)c3n2)c1 [Compound 368]
OUTPUT: 6.11 nM

INPUT: I'm curious: which IC50 was measured for CNCCN(C)Cc1ccc(-c2cncc(C(=O)NCc3c(C)cc(C)[nH]c3=O)c2)cc1 [Compound 373] tested on UniProt:Q86X55?
OUTPUT: 5770 nM

INPUT: What is its IC50 for UniProt:Q86X55? Entry: CNCCN(C)Cc1cccc(-c2ccc3cnn(C(C)C)c3c2)c1 [Compound 100]
OUTPUT: 3700 nM

INPUT: Param readout= IC50; system= UniProt:Q86X55; entry= CN(CCN)Cc1cccc(-c2cc(C(=O)NC3CCOCC3)c3cnn(CC(F)(F)F)c3n2)c1 [Compound 144] ; returns value.
OUTPUT: 26.7 nM

* * *

# System: asymmetric di-methyl PABP1 in RKO cells
# assayInfo: In Cell Western (ICW) for asymmetric di-methyl PABP1 and DNA content in RKO cells
# Format: cell-based
# testContext: Homo sapiens, RKO, In Cell Western
outcomeMeasure: pIC50
In textbook form, pIC50 equals minus log to base ten of the concentration in mol/L.

Some solved cases for reference:
compound	pIC50
CNCCN(C)Cc1cccc(-c2cc(C(=O)NCc3cncn3C)c3cnn(C(C)C)c3n2)c1	5.02
CNCCN(C)Cc1cccc(-c2cc(C(=O)NCc3cnn(C)c3C)c3cnn(C(C)C)c3n2)c1	5.02
CNCCN(C)Cc1cccc(-c2cc(C(=O)NCC3CCOCC3)c3cnn(CC(F)(F)F)c3n2)c1	5.14
CC(C)n1ncc2c(NS(=O)(=O)N(C)C)cc(-c3cccc(CN(C)CCN)c3)nc21	4.93

With those in mind, consider the next compound.
INPUT: Query: pIC50; subject: CC(C)n1ncc2c(C(=O)N3CCC(F)C3)cc(-c3cccc(CN(C)CCN)c3)nc21 (centres unmarked)
OUTPUT: 4.99
